test system: HCT-116; experiment: Growth inhibition of human HCT116 cells at 10 uM after 48 hrs by WST-8 assay; assay type: functional; details: HCT-116, 48 h, read-out: GI
Measurement kind: inhibition of growth at 10 µM

Compound smiles	Endpoint result
CC(C)CC(=O)c1c(O)cc(O)c(C(=O)CC(C)C)c1O	55%
CC(C)CC(=O)c1c(O)c(C=O)c(O)c(C(c2cccnc2)c2c(O)c(C=O)c(O)c(C(=O)CC(C)C)c2O)c1O	69%
CC(=O)c1c(O)c(Cc2c(O)c(C(C)=O)c(O)c(C(C)=O)c2O)c(O)c(C(C)=O)c1O	8%
CC(C)CC(=O)c1c(O)c(Cc2c(O)c(C(=O)CC(C)C)c(O)c(C(=O)CC(C)C)c2O)c(O)c(C(=O)CC(C)C)c1O	1%
CC(C)CC(=O)c1c(O)c(C=O)c(O)c(C(c2ccc(C(F)(F)F)cc2C(F)(F)F)c2c(O)c(C=O)c(O)c(C(=O)CC(C)C)c2O)c1O	14%
CC(C)CC(=O)c1c(O)c(C=O)c(O)c(C(c2ccncc2)c2c(O)c(C=O)c(O)c(C(=O)CC(C)C)c2O)c1O	0%
CC(=O)c1c(O)c(C(C)=O)c(O)c(C(c2cccs2)c2c(O)c(C(C)=O)c(O)c(C(C)=O)c2O)c1O	55%
CC(=O)c1c(O)c(C(C)=O)c(O)c(C(C)c2c(O)c(C(C)=O)c(O)c(C(C)=O)c2O)c1O	3%

###

Examples of compounds with documented IC50 follow.
system: HCT-116; test: Cytotoxicity against human HCT116 cells after 48 hrs by WST-8 assay; format: functional, cell-based; conditions: HCT-116, 48 h
Measurement kind: IC50

Compound smiles	Target of assay	Endpoint result
Nc1ccn([C@@H]2O[C@H](CO)[C@@H](O)C2(F)F)c(=O)n1	HCT-116	0.32 µM
CC(C)CC(=O)c1c(O)cc(O)c(C=O)c1O	HCT-116	9.7 µM
CC(C)CC(=O)c1c(O)c(C(=O)CC(C)C)c(O)c(C(c2cc3ccccc3s2)c2c(O)c(C(=O)CC(C)C)c(O)c(C(=O)CC(C)C)c2O)c1O	HCT-116	9.8 µM
CC(C)CC(=O)c1c(O)c(C(=O)CC(C)C)c(O)c(C(c2ccc(C(F)(F)F)cc2C(F)(F)F)c2c(O)c(C(=O)CC(C)C)c(O)c(C(=O)CC(C)C)c2O)c1O	HCT-116	9.2 µM

###

test system: HCT-116; experiment: Growth inhibition of human HCT116 cells at 10 uM after 48 hrs by WST-8 assay; format: functional; conditions: HCT-116, 48 h, read-out: GI
Examples of compounds with documented inhibition of growth at 10 µM follow.

Compound smiles	inhibition of growth at 10 µM (%)
CC(C)CC(=O)c1c(O)c(C(=O)CC(C)C)c(O)c(C(c2cc3ccccc3o2)c2c(O)c(C(=O)CC(C)C)c(O)c(C(=O)CC(C)C)c2O)c1O	20
CC(C)CC(=O)c1c(O)c(C(=O)CC(C)C)c(O)c(C(c2c(O)c(C(=O)CC(C)C)c(O)c(C(=O)CC(C)C)c2O)c2cccc3ccccc23)c1O	0
CC(C)C(=O)c1c(O)cc(O)c(C(=O)C(C)C)c1O	0
CC(=O)c1c(O)c(C(C)=O)c(O)c(C(c2ccccc2)c2c(O)c(C(C)=O)c(O)c(C(C)=O)c2O)c1O	0
CC(C)CC(=O)c1c(O)c(C(=O)CC(C)C)c(O)c(C(c2ccc3c(c2)OCO3)c2c(O)c(C(=O)CC(C)C)c(O)c(C(=O)CC(C)C)c2O)c1O	60
CCC(c1c(O)c(C(=O)CC(C)C)c(O)c(C(=O)CC(C)C)c1O)c1c(O)c(C(=O)CC(C)C)c(O)c(C(=O)CC(C)C)c1O	22
CC(C)CC(=O)c1c(O)c(C(=O)CC(C)C)c(O)c(C(c2cc3ccccc3s2)c2c(O)c(C(=O)CC(C)C)c(O)c(C(=O)CC(C)C)c2O)c1O	65
CC(C)CC(=O)c1c(O)c(C(=O)CC(C)C)c(O)c(C(c2ccc(C(F)(F)F)cc2C(F)(F)F)c2c(O)c(C(=O)CC(C)C)c(O)c(C(=O)CC(C)C)c2O)c1O	61
CC(=O)c1c(O)cc(O)c(C(C)=O)c1O	0
CC(C)CC(=O)c1c(O)c(C=O)c(O)c(C(c2ccc3c(c2)OCO3)c2c(O)c(C=O)c(O)c(C(=O)CC(C)C)c2O)c1O	50
CC(C)C(=O)c1c(O)c(Cc2c(O)c(C(=O)C(C)C)c(O)c(C(=O)C(C)C)c2O)c(O)c(C(=O)C(C)C)c1O	6
CC(C)CC(=O)c1c(O)c(C(=O)CC(C)C)c(O)c(C(c2ncc[nH]2)c2c(O)c(C(=O)CC(C)C)c(O)c(C(=O)CC(C)C)c2O)c1O	0
CC(C)CC(=O)c1c(O)c(C=O)c(O)c(C(c2cc3ccccc3o2)c2c(O)c(C=O)c(O)c(C(=O)CC(C)C)c2O)c1O	11
CC(C)CC(=O)c1c(O)c(C=O)c(O)c(C(c2ccc3c(c2)Cc2ccccc2-3)c2c(O)c(C=O)c(O)c(C(=O)CC(C)C)c2O)c1O	52

###

system: HCT-116; experiment: Growth inhibition of human HCT116 cells at 10 uM after 48 hrs by WST-8 assay; type: functional; conditions: HCT-116, 48 h, read-out: GI

Compound smiles	Endpoint unit	inhibition of growth at 10 µM
CC(C)CC(=O)c1c(O)c(C=O)c(O)c(C(c2ccc(OCc3ccccc3)cc2)c2c(O)c(C=O)c(O)c(C(=O)CC(C)C)c2O)c1O	%	48
CC(C)CC(=O)c1c(O)c(C=O)c(O)c(C(c2ccc(-c3ccccc3)cc2)c2c(O)c(C=O)c(O)c(C(=O)CC(C)C)c2O)c1O	%	5
CC(C)CC(=O)c1c(O)c(C=O)c(O)c(C(c2ncc[nH]2)c2c(O)c(C=O)c(O)c(C(=O)CC(C)C)c2O)c1O	%	18
CC(C)CC(=O)c1c(O)c(C(=O)CC(C)C)c(O)c(C(c2c(O)c(C(=O)CC(C)C)c(O)c(C(=O)CC(C)C)c2O)C2CCCCC2)c1O	%	0
